These entries and their values trace back to PubChem BioAssay (NCI).

- Test system: HCT-116 colon
- test-description: NCI-60 one-dose screen, 48 h (100 = growth as untreated, 0 = no growth, -100 = all killed)
- protocol-conditions: 10 µM unless noted
This is part of a sample that, as a whole, favours compounds with a hit. Of some 83,000 tested, about 20% had one in any assay.
assay-metric: growth (%)
Report only the number, with the unit % understood.

# example entries with known answers
Enquiry: May I ask what growth has been recorded for OC1CCc2c(-c3ccc4ncnc(N5CCc6cc(F)c(Cl)cc65)c4c3)cncc21 (stereo not drawn) ?
Return: 66.9

Enquiry: May I ask what growth has been recorded for `NC(=O)c1c(NC(=O)c2ccc(C3CCCCC3)cc2)sc2c1CCC(=O)C2` ?
Return: 7.94

Continue with the next compound.
Enquiry: May I ask what growth has been recorded for `O=C(Nc1nc2ccc(O)cc2s1)c1cccc(C(F)(F)F)c1` ?
Return: 57.6

---

- Tested on: CAKI-1 renal
- test-description: NCI-60 one-dose screen, 48 h (100 = growth as untreated, 0 = no growth, -100 = all killed)
- protocol-conditions: 10 µM unless noted
The panel holds about 83,000 compounds, 20% with a hit somewhere; the sample as a whole holds those more often.
Label f if growth falls below 30%; label t in every other case.

Enquiry: Please check the record `CCOC(=O)c1c(Nc2ccccc2)nn2c(N)c(C#N)c(-c3ccc(Cl)cc3)nc12` and state if its growth is at or above 30%.
Return: t

---
Enquiry: Please check the record `C[C@@H](Nc1c(C#N)cnc2ccc(-c3cnc(N)nc3)cc12)c1ccccc1` and state if its growth is at or above 30%.
Return: f

Enquiry: Please check the record `CN(C)c1ccc(-c2c(NC(C)(C)C)nc3c(OCCc4ccccc4)cccn23)cc1` and state if its growth is at or above 30%.
Return: f

Enquiry: Please check the record `Clc1ccc(-c2cn3cc(Cc4ccc(Cl)c(Cl)c4)sc3n2)cc1` and state if its growth is at or above 30%.
Return: t

Enquiry: Please check the record `COc1cc(N=Cc2sc(Nc3nccs3)nc2O)cc(OC)c1OC` and state if its growth is at or above 30%.
Return: t

Enquiry: Please check the record `C#Cc1nc(C2=C(C)C(=O)/C(=N/OC(C)=O)C2)cs1` and state if its growth is at or above 30%.
Return: t

Enquiry: Please check the record `Clc1ccc2c(NCCCn3ccnc3)c3oc4ccccc4c3nc2c1` and state if its growth is at or above 30%.
Return: f

Enquiry: Please check the record `O=C(CSc1nnc(-c2ccc3nc(-c4ccc(Cl)cc4)[nH]c3c2)o1)Nc1ccc(C(=O)/C=C/c2ccc(Cl)cc2)cc1` and state if its growth is at or above 30%.
Return: t

Enquiry: Please check the record `CS(=O)(=O)Nc1ccc(-c2nn(-c3ccc(S(C)(=O)=O)cc3)cc2/C=C/C(=O)c2ccc(NC(=O)CO[N+](=O)[O-])cc2)cc1` and state if its growth is at or above 30%.
Return: t

---

In this section, each of the compounds is paired with its reported growth.
- System: SF-539 CNS
- test-description: NCI-60 one-dose screen, 48 h (100 = growth as untreated, 0 = no growth, -100 = all killed)
- protocol-conditions: 10 µM unless noted
About 83,000 compounds went through this panel and 20% of them were active in at least one assay; those are over-represented in the sample as a whole.
Report only the number, with the unit % understood.

# example entries with known answers
Enquiry: May I ask what growth has been recorded for `COc1cccc(NC2=CC(=O)C(C)=C(C)C2=O)c1` ?
Return: 21.7

Enquiry: May I ask what growth has been recorded for `CC1=C(C)C(=O)C(Nc2ccccc2)=C(Cl)C1=O` ?
Return: 95.4

Enquiry: May I ask what growth has been recorded for `Cc1ccc(/C=C/c2nn3c(-c4ccco4)nnc3s2)cc1C` ?
Return: 99

Enquiry: May I ask what growth has been recorded for `COc1ccc(NC2=C(Cl)C(=O)C(C)=C(C)C2=O)cc1OC` ?
Return: 94.7

Enquiry: May I ask what growth has been recorded for `NS(=O)(=O)c1cccc(Nc2nc(SCC(=O)c3ccc([N+](=O)[O-])cc3)nc3ccccc23)c1` ?
Return: 52.2

Continue with the next compound.
Enquiry: May I ask what growth has been recorded for `CC(C)NC(=O)c1cc(-c2ccc(NC(=O)Nc3ccc(N4CCOCC4)c(C(F)(F)F)c3)cc2)nc2cccnc12` ?
Return: 20.9

---

In this section, each of the compounds is paired with its reported growth.
- Test system: MOLT-4 leukemia
- test-description: NCI-60 one-dose screen, 48 h (100 = growth as untreated, 0 = no growth, -100 = all killed)
- protocol-conditions: 10 µM unless noted
About 83,000 compounds went through this panel and 20% of them were active in at least one assay; those are over-represented in the sample as a whole.
Report only the number, with the unit % understood.

# example entries with known answers
Enquiry: May I ask what growth has been recorded for `Cc1c(Nc2nnc(SCC(=O)Nc3sc4c(c3C#N)CCCC4)s2)c(=O)n(-c2ccccc2)n1C` ?
Return: 92.7

Enquiry: May I ask what growth has been recorded for `Cc1ccc(C(=O)Nc2cccc(C(F)(F)F)c2)cc1Nc1nc(-c2cnccn2)nc2c1cnn2C` ?
Return: 43.1

Enquiry: May I ask what growth has been recorded for `O=C(CN1CCOCC1)NNc1ncnc2ccccc12` ?
Return: 74.6

Enquiry: May I ask what growth has been recorded for `CO/N=C1\CCc2c(sc(NC(=O)c3cccc(C(F)(F)F)c3)c2C(N)=O)C1` ?
Return: 84.1

Enquiry: May I ask what growth has been recorded for `COc1ccc(/C=N/NC(=O)c2[nH]c3ccc(Br)cc3c2-c2ccccc2)o1` ?
Return: 17

---
Enquiry: May I ask what growth has been recorded for `CCN(CC)c1ccc(C=O)c(OCc2cn(CC(=O)Nc3ccc(Cl)cc3)nn2)c1` ?
Return: 51.9

Enquiry: May I ask what growth has been recorded for `Nc1cc(-c2c[nH]c3ccc(F)cc23)nc2cc(-c3c[nH]c4ccc(F)cc34)nn12` ?
Return: 39

Enquiry: May I ask what growth has been recorded for `Cc1nc(-c2cc3ccccc3oc2=O)ccc1C(=O)/C=C/c1ccc(N2CCOCC2)cc1` ?
Return: 66.1

Enquiry: May I ask what growth has been recorded for `Cc1nc2cnc(N)c(C#Cc3cncc(C(=O)Nc4ccc(Cl)c(C(F)(F)F)c4)c3)c2nc1C` ?
Return: 35.6

Enquiry: May I ask what growth has been recorded for `COc1ccc(-c2csc(N/N=C/c3c(-c4ccc(S(C)(=O)=O)cc4)nc4ccccn34)n2)cc1` ?
Return: 92.4

Enquiry: May I ask what growth has been recorded for COC1CCN(Cc2ccc3c(NNC(=O)c4cnccn4)nc4cc(F)ccc4n23)C1 (stereo not given) ?
Return: 8.05

Enquiry: May I ask what growth has been recorded for `Cc1ccc(CNS(=O)(=O)/N=C2\NC(=O)NC2=C(Cl)Cl)cc1` ?
Return: 21

Enquiry: May I ask what growth has been recorded for `CS(=O)(=O)c1ccc(-n2cc(/C=C/C(=O)c3ccc(NC(=O)CO[N+](=O)[O-])cc3)c(-c3ccc(Cl)cc3)n2)cc1` ?
Return: 119

Enquiry: May I ask what growth has been recorded for COc1ccccc1/C=C/C=N/NC1=NC2C(S1)N(C)C(=O)N2C (stereo not given) ?
Return: 21

Enquiry: May I ask what growth has been recorded for `Clc1ccc2c(OCCCN3CCOCC3)c3oc4ccccc4c3nc2c1` ?
Return: 11.7

---

- Test system: SK-MEL-28 melanoma
- test-description: NCI-60 one-dose screen, 48 h (100 = growth as untreated, 0 = no growth, -100 = all killed)
- protocol-conditions: 10 µM unless noted
About 83,000 compounds went through this panel and 20% of them were active in at least one assay; those are over-represented in the sample as a whole.
Label False if growth falls below 70%; label True in every other case.

Enquiry: Please check the record `Cc1ccc(/C=C/c2nn3c(-c4ccco4)nnc3s2)cc1C` and state if its growth is at or above 70%.
Return: True

Enquiry: Please check the record `Nc1cc(-c2c[nH]c3ccc(F)cc23)nc2cc(-c3c[nH]c4ccc(F)cc34)nn12` and state if its growth is at or above 70%.
Return: True

Enquiry: Please check the record `CC(C)(C)Nc1nc2c(OCCc3ccccc3)cccn2c1-c1cccc(F)c1` and state if its growth is at or above 70%.
Return: False

---

- System: DU-145 prostate
- test-description: NCI-60 one-dose screen, 48 h
- protocol-conditions: 10 µM unless noted
This is part of a sample that, as a whole, favours compounds with a hit. Of some 83,000 tested, about 20% had one in any assay. Calls of active or inactive are those of the source. Rule for the calls: active = growth percent below 10; inactive = the rest.
Use one of these outcomes when replying: active, inactive

Enquiry: Hey, what did the test say about `N/C(=N\c1nc2c(Cl)cc(Cl)cc2s1)C(Cl)(Cl)Cl` ?
Return: active

---
Enquiry: Hey, what did the test say about `C#C[C@]1(O)CC[C@H]2[C@@H]3CC=C4c5sc(-c6ccc(F)cn6)nc5CC[C@]4(C)[C@H]3CC[C@@]21C` ?
Return: inactive

Enquiry: Hey, what did the test say about `CC1=C(C)C(=O)C(Nc2ccccc2)=C(Cl)C1=O` ?
Return: inactive

Enquiry: Hey, what did the test say about `CC(=NNc1ncnc2ccccc12)c1ccc(S(C)(=O)=O)cc1` ?
Return: inactive

Enquiry: Hey, what did the test say about `CN1CCc2c(sc3ncnc(N/N=C/c4ccc(Cl)c(Cl)c4)c23)C1` ?
Return: inactive

Enquiry: Hey, what did the test say about `COc1ccc(-c2nc3ccc(-c4nnc(SCC(=O)Nc5ccc(C(=O)/C=C/c6ccccc6)cc5)o4)cc3[nH]2)cc1OC` ?
Return: inactive

Enquiry: Hey, what did the test say about `CN1CCN(Cc2ccc(NC(=O)c3cncc(C#Cc4cnc5[nH]ncc5c4)c3)cc2C(F)(F)F)CC1` ?
Return: inactive

Enquiry: Hey, what did the test say about `COc1ccc(/C=N/Nc2ccnc3cc(Cl)ccc23)cc1Cl` ?
Return: active

Enquiry: Hey, what did the test say about `Cc1ccc2c(n1)C(=O)C(Cl)=C(Nc1cccc(C(C)C)c1)C2=O` ?
Return: inactive
